assay: Analysis of luciferase siRNA-encapsulated lipid nanoparticle (Production Example 1); assay type: physicochemical; details: luc siRNA lipid nanoparticle
Attribute Measured: Rate of encapsulation (%)
Report the value in % with no unit label.

I have this compound here, CCCCCCCC(=O)OCC(COC(=O)CCCCCCC)(COC(=O)CCCN(C)C)COC(=O)C(CCCCCC)CCCCCC [Example 2] , and I need its recorded Rate of encapsulation.
96

I have this compound here, CCCCCCC(=O)OCC(COC(=O)CCCCN(C)C)(COC(=O)C(CCCCC)CCCCC)COC(=O)C(CCCCC)CCCCC [Example 5] , and I need its recorded Rate of encapsulation.
96

I have this compound here, CCCCCCCC(=O)OCC(COC(=O)CCCN(C)C)(COC(=O)C(CCCCCC)CCCCCC)COC(=O)C(CCCCCC)CCCCCC [Example 6] , and I need its recorded Rate of encapsulation.
93

I have this compound here, CCCCCCC(=O)OCC(COC(=O)CCCN(C)C)(COC(=O)C(CCCCC)CCCCC)COC(=O)C(CCCCC)CCCCC [Example 4] , and I need its recorded Rate of encapsulation.
91

I have this compound here, CCCCCCCC(=O)OCC(COC(=O)CCCCCCC)(COC(=O)CCCCN(C)C)COC(=O)C(CCCCCC)CCCCCC [Example 3] , and I need its recorded Rate of encapsulation.
96

I have this compound here, CCCCCCCC(=O)OCC(COC(=O)CCCCN(C)C)(COC(=O)C(CCCCCC)CCCCCC)COC(=O)C(CCCCCC)CCCCCC [Example 7] , and I need its recorded Rate of encapsulation.
97

* * *

system: human liver cancer-derived cell line Hep3B stably expressing luciferase; experiment: Transfection of cultured cell with siRNA (luciferase knockdown); assay type: cell-based; details: lipid particle containing luciferase siRNA, 48 hours after addition, read-out: siRNA concentration necessary for 50% knockdown
Response field label takes yes (1) when IC50 is strictly below 30 nM and no (0) in all other cases.

hey, is IC50 for CCCCCCC(=O)OCC(COC(=O)CCCCN(C)C)(COC(=O)C(CCCCC)CCCCC)COC(=O)C(CCCCC)CCCCC lower than 30 nM or not?
yes (1)

hey, is IC50 for CCCCCCCC(=O)OCC(COC(=O)CCCN(C)C)(COC(=O)C(CCCCCC)CCCCCC)COC(=O)C(CCCCCC)CCCCCC lower than 30 nM or not?
no (0)

hey, is IC50 for CCCCCCCC(=O)OCC(COC(=O)CCCCCCC)(COC(=O)CCCCN(C)C)COC(=O)C(CCCCCC)CCCCCC lower than 30 nM or not?
no (0)

hey, is IC50 for CCCCCCC(=O)OCC(COC(=O)CCCN(C)C)(COC(=O)C(CCCCC)CCCCC)COC(=O)C(CCCCC)CCCCC lower than 30 nM or not?
no (0)

hey, is IC50 for CCCCCCCC(=O)OCC(COC(=O)CCCCN(C)C)(COC(=O)C(CCCCCC)CCCCCC)COC(=O)C(CCCCCC)CCCCCC lower than 30 nM or not?
yes (1)

hey, is IC50 for CCCCCCCC(=O)OCC(COC(=O)CCCCCCC)(COC(=O)CCCN(C)C)COC(=O)C(CCCCCC)CCCCCC lower than 30 nM or not?
yes (1)

* * *

experiment: Analysis of luciferase mRNA-encapsulated lipid nanoparticle (Production Example 2); format: physicochemical; settings: luciferase mRNA lipid nanoparticle dispersion after dialysis and filtration
Attribute Measured: mRNA concentration (µg/mL)
Report the value in µg/mL with no unit label.

I have this compound here, CCCCCCCCCC(=O)OCC(COC(=O)CCCCCCCCC)(COC(=O)CCCCN(C)C)COC(=O)CCC(CCCC)C(CCCC)CCCC (centres unmarked) , and I need its recorded mRNA concentration.
134

I have this compound here, CCCCCCCC(=O)OCC(COC(=O)CCCCN(C)C)(COC(=O)CC(CCCCC)CCCCC)COC(=O)CC(CCCCC)CCCCC , and I need its recorded mRNA concentration.
77

I have this compound here, CCCCCCCC(=O)OCC(COC(=O)CCCCCCC)(COC(=O)CCCCN(C)C)COC(=O)CCC(CCCCCCC)CCCCCCC , and I need its recorded mRNA concentration.
145

I have this compound here, CCCCCCCCCC(=O)OCC(COC(=O)CCCCCCCCC)(COC(=O)CCCCN(C)C)COC(=O)CCC(CCC)C(CCC)CCC (centres unmarked) , and I need its recorded mRNA concentration.
134

I have this compound here, CCCCCCCC(=O)OCC(COC(=O)CCCCCCC)(COC(=O)CCCCN(C)C)COC(=O)CCC(CCC)C(CCC)CCC (centres unmarked) , and I need its recorded mRNA concentration.
116

* * *

Exercise: for every item that follows, state its recorded mRNA concentration.
assay: Analysis of luciferase mRNA-encapsulated lipid nanoparticle (Production Example 2); assay type: physicochemical; conditions: luciferase mRNA lipid nanoparticle dispersion after dialysis and filtration
Value and unit, in that order.

I have this compound here, CCCCCC(=O)OCC(COC(=O)CCCCC)(COC(=O)CCCCN(C)C)COC(=O)CCC(CCCC)C(CCCC)CCCC (stereo not shown) , and I need its recorded mRNA concentration.
127 µg/mL

I have this compound here, CCCCCCCC(=O)OCC(COC(=O)CCCCCCC)(COC(=O)CCCCN(C)C)COC(=O)CCC(CCCC)C(CCCC)CCCC (stereo not shown) , and I need its recorded mRNA concentration.
83 µg/mL

I have this compound here, CCCCCCCC(=O)OCC(COC(=O)CCCCCCC)(COC(=O)CCC(CCCC)C(CCCC)CCCC)COC(=O)NCCCCN(C)C (stereo not shown) , and I need its recorded mRNA concentration.
103 µg/mL

I have this compound here, CCCCCCCC(=O)OCC(COC(=O)CCCCCCC)(COC(=O)CCCCCN(C)C)COC(=O)CCC(CCCC)C(CCCC)CCCC (stereo not shown) , and I need its recorded mRNA concentration.
78 µg/mL

I have this compound here, CCCCCCCC(=O)OCC(COC(=O)CCCCCN(C)C)(COC(=O)C(CCCCCC)CCCCCC)COC(=O)C(CCCCCC)CCCCCC , and I need its recorded mRNA concentration.
97 µg/mL

I have this compound here, CCCCCC(=O)OCC(COC(=O)CCCCC)(COC(=O)CCCCN(C)C)COC(=O)CCC(CCCCC)C(CCCCC)CCCCC (stereo not shown) , and I need its recorded mRNA concentration.
160 µg/mL

I have this compound here, CCCCCCCC(=O)OCC(COC(=O)CCCCCCC)(COC(=O)CCCCN(C)C)COC(=O)CCC(CCCCC)C(CCCCC)CCCCC (stereo not shown) , and I need its recorded mRNA concentration.
155 µg/mL

* * *

assay: Analysis of luciferase siRNA-encapsulated lipid nanoparticle (Production Example 1); format: physicochemical; conditions: luc siRNA lipid nanoparticle; cationic lipid:DPPC:cholesterol:GS-020=60:10.6:28:1.4; Z-average, dynamic light scattering
Exercise: for every item that follows, state its recorded Average particle size.
Report the value in nm with no unit label.

I have this molecule here, CCCCCCCC(=O)OCC(COC(=O)CCCCN(C)C)(COC(=O)C(CCCCCC)CCCCCC)COC(=O)C(CCCCCC)CCCCCC , and I need its recorded Average particle size.
73

I have this molecule here, CCCCCCCC(=O)OCC(COC(=O)CCCCCCC)(COC(=O)CCCN(C)C)COC(=O)C(CCCCCC)CCCCCC , and I need its recorded Average particle size.
71

I have this molecule here, CCCCCCC(=O)OCC(COC(=O)CCCN(C)C)(COC(=O)C(CCCCC)CCCCC)COC(=O)C(CCCCC)CCCCC , and I need its recorded Average particle size.
73

I have this molecule here, CCCCCCCC(=O)OCC(COC(=O)CCCN(C)C)(COC(=O)C(CCCCCC)CCCCCC)COC(=O)C(CCCCCC)CCCCCC , and I need its recorded Average particle size.
77

I have this molecule here, CCCCCCCC(=O)OCC(COC(=O)CCCCCCC)(COC(=O)CCCCN(C)C)COC(=O)C(CCCCCC)CCCCCC , and I need its recorded Average particle size.
81

I have this molecule here, CCCCCCC(=O)OCC(COC(=O)CCCCN(C)C)(COC(=O)C(CCCCC)CCCCC)COC(=O)C(CCCCC)CCCCC , and I need its recorded Average particle size.
83

* * *

Test: Analysis of Col1a1 siRNA + FVII siRNA-encapsulated lipid nanoparticle (Production Example 3)
Type: physicochemical
Settings: Col1a1 siRNA + FVII siRNA lipid nanoparticle
From the text: The particle size of the lipid particle (in the composition) can be measured by a known approach. For example, the particle size can be calculated as a Z-average particle size by the cumulant analysis of an autocorrelation function using a particle size measurement apparatus Zetasizer Nano ZS (Malvern Instruments) based on a dynamic light scattering measurement technique. […]
Exercise: for every item that follows, state its recorded Rate of encapsulation.
Report the value in % with no unit label.

I have this compound here, CCCCCCCC(=O)OCC(COC(=O)CCCCCCC)(COC(=O)CCCCN(C)C)COC(=O)CCC(CCCCCCC)CCCCCCC [Example 1] , and I need its recorded Rate of encapsulation.
98

I have this compound here, CCCCCCCC(=O)OCC(COC(=O)CCCCCCC)(COC(=O)CCCCCN(C)C)COC(=O)CCC(CCCC)C(CCCC)CCCC (stereo not shown) [Example 11] , and I need its recorded Rate of encapsulation.
97

I have this compound here, CCCCCCCC(=O)OCC(COC(=O)CCCCCCC)(COC(=O)CCCCN(C)C)COC(=O)CCC(CCCC)C(CCCC)CCCC (stereo not shown) [Example 10] , and I need its recorded Rate of encapsulation.
97

I have this compound here, CCCCCCCC(=O)OCC(COC(=O)CCCCCCC)(COC(=O)CCCN(C)C)COC(=O)CCC(CCCC)C(CCCC)CCCC (stereo not shown) [Example 19] , and I need its recorded Rate of encapsulation.
96

I have this compound here, CCCCCCCCCC(=O)OCC(COC(=O)CCCCCCCCC)(COC(=O)CCCCN(C)C)COC(=O)CCC(CCC)C(CCC)CCC (stereo not shown) [Example 16] , and I need its recorded Rate of encapsulation.
96

I have this compound here, CCCCCCCCCC(=O)OCC(COC(=O)CCCCCCCCC)(COC(=O)CCCCN(C)C)COC(=O)CCC(CCCC)C(CCCC)CCCC (stereo not shown) [Example 14] , and I need its recorded Rate of encapsulation.
96

I have this compound here, CCCCCCCC(=O)OCC(COC(=O)CCCCCCC)(COC(=O)CCCCN(C)C)COC(=O)CCC(CCCCC)C(CCCCC)CCCCC (stereo not shown) [Example 13] , and I need its recorded Rate of encapsulation.
97
